Data provenance is paper PMC10450164.

Item-by-item account of Kd
target: TFAP2A DBD-HSH WT (Homo sapiens, UniProt P05549 203-420); assay: ITC
Sequence (P05549 203-420): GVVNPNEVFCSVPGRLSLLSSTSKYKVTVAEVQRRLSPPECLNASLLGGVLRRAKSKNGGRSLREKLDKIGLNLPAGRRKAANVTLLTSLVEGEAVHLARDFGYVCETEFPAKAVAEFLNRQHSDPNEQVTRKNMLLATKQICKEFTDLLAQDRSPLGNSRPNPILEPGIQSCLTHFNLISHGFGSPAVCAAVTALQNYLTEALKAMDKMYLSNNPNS

binder: TGA (dsDNA) DNA 1: GTGCCTGAGGCAG DNA 2: CTGCCTCAGGCAC
Kd, nM: 17

binder: GmCC/GGC (dsDNA, methylcytosine at position 4 of strand 1; second strand methylation not stated) DNA 1: GTGCCCGAGGCAG DNA 2: CTGCCTCGGGCAC
Kd, nM: 347

binder: tCC/GGC (dsDNA) DNA 1: GTTCCCGAGGCAG DNA 2: CTGCCTCGGGAAC
Kd, nM: 565

binder: cCC/GGC (dsDNA) DNA 1: GTCCCCGAGGCAG DNA 2: CTGCCTCGGGGAC
Kd, nM: 78

binder: aCC/GGC (dsDNA) DNA 1: GTACCCGAGGCAG DNA 2: CTGCCTCGGGTAC
Kd, nM: 373

binder: GCt/GGC (dsDNA) DNA 1: GTGCTCGAGGCAG DNA 2: CTGCCTCGAGCAC
Kd, nM: 694
